Catalogue of binding (fold over iso) readings, one per entry.
experimental-target: T1, human LILRB1 (human, UniProt Q8NHL6 24-650)
T1 construct: Over-expressed on CHO-s cells; also called hLILRB1
T1 sequence (Q8NHL6 24-650 limits assumed): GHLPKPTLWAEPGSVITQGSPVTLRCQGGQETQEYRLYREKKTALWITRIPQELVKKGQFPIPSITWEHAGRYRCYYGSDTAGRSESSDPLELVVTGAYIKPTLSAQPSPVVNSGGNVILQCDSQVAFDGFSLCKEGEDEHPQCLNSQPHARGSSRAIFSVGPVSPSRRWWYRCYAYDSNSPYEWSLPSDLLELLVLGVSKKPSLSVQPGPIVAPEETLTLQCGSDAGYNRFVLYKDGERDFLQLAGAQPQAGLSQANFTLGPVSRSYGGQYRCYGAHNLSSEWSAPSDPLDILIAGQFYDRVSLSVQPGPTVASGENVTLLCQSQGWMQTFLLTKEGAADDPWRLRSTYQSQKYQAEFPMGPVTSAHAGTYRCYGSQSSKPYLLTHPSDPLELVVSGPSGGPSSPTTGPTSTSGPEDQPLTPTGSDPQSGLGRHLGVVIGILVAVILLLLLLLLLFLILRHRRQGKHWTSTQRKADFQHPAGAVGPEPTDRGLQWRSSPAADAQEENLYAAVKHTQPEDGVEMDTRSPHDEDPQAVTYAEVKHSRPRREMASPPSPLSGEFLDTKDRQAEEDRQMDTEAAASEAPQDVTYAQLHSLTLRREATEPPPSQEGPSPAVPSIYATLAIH
assay-details: flow cytometry, LILRB1 CHOs
Note: unit fold over iso is implicit; provide only the numeric part.

The cases that follow already have their binding (fold over iso) on record.
binder	numeric-readout
J-19.h3 (antibody, human IgG4 S228P, kappa, V domains shown, Humanized, human IgG4 backbone) VH: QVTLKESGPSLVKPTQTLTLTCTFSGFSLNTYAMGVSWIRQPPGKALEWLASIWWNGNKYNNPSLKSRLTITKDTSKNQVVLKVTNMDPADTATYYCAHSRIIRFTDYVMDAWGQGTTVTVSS VL: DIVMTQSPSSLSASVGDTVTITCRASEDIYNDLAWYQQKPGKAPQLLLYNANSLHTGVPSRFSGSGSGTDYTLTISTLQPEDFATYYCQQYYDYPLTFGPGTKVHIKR	0.84
J-19.h4 (antibody, human IgG4 S228P, kappa, V domains shown, Humanized, human IgG4 backbone) VH: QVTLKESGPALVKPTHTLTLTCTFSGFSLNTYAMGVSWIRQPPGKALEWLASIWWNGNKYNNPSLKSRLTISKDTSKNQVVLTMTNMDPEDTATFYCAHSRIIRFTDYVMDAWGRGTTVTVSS VL: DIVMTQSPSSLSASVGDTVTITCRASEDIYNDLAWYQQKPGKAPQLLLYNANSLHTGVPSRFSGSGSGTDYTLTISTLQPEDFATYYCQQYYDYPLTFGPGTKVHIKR	0.87
J-19.h1 (antibody, human IgG4 S228P, kappa, V domains shown, Humanized, human IgG4 backbone) VH: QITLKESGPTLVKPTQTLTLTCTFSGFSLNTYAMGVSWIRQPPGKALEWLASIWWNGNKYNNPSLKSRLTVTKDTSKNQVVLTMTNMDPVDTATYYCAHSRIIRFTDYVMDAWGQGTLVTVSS VL: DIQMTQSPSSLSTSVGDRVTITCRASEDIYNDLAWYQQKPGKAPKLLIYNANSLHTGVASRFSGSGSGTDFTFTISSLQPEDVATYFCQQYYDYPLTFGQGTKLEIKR	0.79

// moving on: another record for binding (fold over iso)
Noted for J-19.h2 (antibody, human IgG4 S228P, kappa, V domains shown, Humanized, human IgG4 backbone) VH: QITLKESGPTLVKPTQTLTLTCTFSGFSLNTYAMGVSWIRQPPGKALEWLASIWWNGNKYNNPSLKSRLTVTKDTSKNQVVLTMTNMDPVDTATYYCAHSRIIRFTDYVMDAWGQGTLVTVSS VL: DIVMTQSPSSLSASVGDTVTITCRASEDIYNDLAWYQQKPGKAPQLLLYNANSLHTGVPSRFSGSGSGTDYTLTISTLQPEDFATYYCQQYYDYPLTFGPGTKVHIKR : its binding (fold over iso) reads 0.73
